Target: Eidolon HR2 peptide (Eidolon)
Assay: peptide ELISA
In this section we review reported EC50 values for a set of binders.

# binder, EC50
rows = [
    ("hr2.016 (antibody, V domains shown) VH: EVQLLESGGGLVQPGGSLRLSCAASGFMFSKYAMTWVRQTPGKGLEWVSVISGGGGSTYYADSVKGRFTISRDNSKNTLYLQMNSLRAEDTAVYYCAKLLVVFVIDYWGQGALVTVSS VL: EIVLTQSPGTLSLSPGERATLFCRASQSVSSNLAWYQQKPGRAPRLLISGASSRATGIPDRFSGSGSGTDFTLTISRLEPEDFAVYYCQQYGSSPPTFGQGTKVEIK", "0.033 mg/L"),
    ("hr2.012 (antibody, V domains shown) VH: QVQLVQSGAEVKKPGASVKVSCKASGYTFTSHYIHWVRQAPGQGLEWMGIIKPSGGNTIYAQTFQGRVTMTRDTSTSTVYMELRSLTSDDTAVYYCARDQDHGLQRWGQGTLVTVSS VL: QSVLTQPPSVSAPPGQKVTISCSGSSSNIGNNFVSWYQQLPGTAPKLLIYDNIERPSGIPDRFSGSRSGTSATLGITGLQTGDEADYYCGTWDTSLGAWVFGGGTKVTVL", "0.463 mg/L"),
    ("hr2.023 (antibody, V domains shown) VH: QVQLVQSGAEVKKPGASVKVSCRASENIFSDSYLHWVRQAPGQGLEWMGIITPSGDKTFYAQQFQGRLTMTRDTPTNTLHMDLRGLTSADTAIYYCARQATKGGWDYWGQGTLVTVSS VL: EIVLTQSPGTLSLSPGESATLSCRASQSVTRNYLAWYQQQPGQAPRLLIYGASNRATGVPDRFSGSGSGTDFTLTISRLEPEDFAVYYCQQYGSSPPTFIFGPGTKVDIK", "0.126 mg/L"),
    ("hr2.013 (antibody, V domains shown) VH: QVQLVQSGAEVKKPGASVKISCKASGYTFTNNYMNWVRQAPGQGLEWMGIIKPSSGSTIYAHKFQGRVTMTRDTSTSTVYMEVRSLTSEDTAVYYCARDQDHGLQNWGQGTLVTVSS VL: QSVLTQPPSVSAASGQKVTIYCSGSSSNIASNFVSWYQQFPGTAPKLLIYDNNQRPSGIPDRFSGSRSGTSATLGITGLQTGDEADYYCGTWDTSLGAWVFGGGTKLTVL", "0.186 mg/L"),
]

Reference source: patent US20250382354A1
